Biological target: T1, cMet-Fc fusion protein (extracellular domain of the cMet receptor expressed as an Fc-fusion protein) (human, UniProt P08581 25-932)
T1 construct: extracellular domain; also called soluble cMet-Fc-fusion protein; soluble cMet receptor; not shown: Fc part
T1 sequence (P08581 25-932): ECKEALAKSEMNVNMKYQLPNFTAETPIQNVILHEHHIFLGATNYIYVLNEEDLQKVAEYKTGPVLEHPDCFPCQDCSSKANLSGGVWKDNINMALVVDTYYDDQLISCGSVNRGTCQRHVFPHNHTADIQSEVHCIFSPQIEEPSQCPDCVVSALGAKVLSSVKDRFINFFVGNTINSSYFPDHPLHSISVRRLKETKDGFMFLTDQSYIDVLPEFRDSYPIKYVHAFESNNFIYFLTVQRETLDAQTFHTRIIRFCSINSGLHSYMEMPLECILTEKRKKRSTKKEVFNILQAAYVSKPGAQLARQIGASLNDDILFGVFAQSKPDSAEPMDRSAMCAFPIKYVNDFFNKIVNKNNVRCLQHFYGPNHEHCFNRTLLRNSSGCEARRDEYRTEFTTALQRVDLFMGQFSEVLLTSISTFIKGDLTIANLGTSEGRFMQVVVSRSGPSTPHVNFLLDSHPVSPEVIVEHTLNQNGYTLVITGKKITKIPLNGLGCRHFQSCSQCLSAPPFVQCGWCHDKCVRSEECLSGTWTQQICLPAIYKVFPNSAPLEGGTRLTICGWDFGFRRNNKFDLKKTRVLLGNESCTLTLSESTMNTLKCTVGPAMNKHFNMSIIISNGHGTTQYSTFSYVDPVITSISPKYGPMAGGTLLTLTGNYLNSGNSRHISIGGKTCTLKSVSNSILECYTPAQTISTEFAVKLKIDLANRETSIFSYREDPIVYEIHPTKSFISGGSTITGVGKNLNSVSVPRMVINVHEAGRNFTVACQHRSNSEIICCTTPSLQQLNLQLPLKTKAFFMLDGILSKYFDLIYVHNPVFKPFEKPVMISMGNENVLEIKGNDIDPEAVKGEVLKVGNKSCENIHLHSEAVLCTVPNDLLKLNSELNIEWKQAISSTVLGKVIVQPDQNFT
Experiment: phage ELISA on cMet-Fc, competitor HGF 100 ng/mL
Categories are assigned from the measured % of binding in the absence of HGF using these intervals: class 0 (below 60%), class 1 (60% to below 90%), class 2 (90% or more)

[
  {
    "binder": "AGAWNCEYPTFICEWQGA [570-E07 peptide-displaying phage (SEQ ID NO: 012)]",
    "answer-label": "class 1"
  },
  {
    "binder": "AGHAWCSGPPRFECWPPGT [329-D02 peptide-displaying phage (SEQ ID NO: 061)]",
    "answer-label": "class 0"
  },
  {
    "binder": "GSEFECTGWPEFRCYEYAP [548-C10 peptide-displaying phage (SEQ ID NO: 100)]",
    "answer-label": "class 1"
  },
  {
    "binder": "AGVWICRVWDDECFFQGT [376-E05 peptide-displaying phage (SEQ ID NO: 020)]",
    "answer-label": "class 2"
  },
  {
    "binder": "GDNRFCSWVYNVDDWWCVDNDP [332-H09 peptide-displaying phage (SEQ ID NO: 398)]",
    "answer-label": "class 0"
  },
  {
    "binder": "AGGNWCSFYEELCEWLGT [445-E04 peptide-displaying phage (SEQ ID NO: 043)]",
    "answer-label": "class 2"
  },
  {
    "binder": "AGTMYCLGPPTFICQQYGT [548-C06 peptide-displaying phage (SEQ ID NO: 084)]",
    "answer-label": "class 2"
  },
  {
    "binder": "AGYTSCVGPPSFECTPYGT [323-A11 peptide-displaying phage (SEQ ID NO: 059)]",
    "answer-label": "class 0"
  },
  {
    "binder": "AQEWEREYFVDGFWGSWFGIPH [130-E10 peptide-displaying phage (SEQ ID NO: 472)]",
    "answer-label": "class 2"
  },
  {
    "binder": "AGNYWCSGPPSFICHAVGT [549-D02 peptide-displaying phage (SEQ ID NO: 091)]",
    "answer-label": "class 0"
  },
  {
    "binder": "AGTWHCAGPPWFTCYMDGT [551-B02 peptide-displaying phage (SEQ ID NO: 069)]",
    "answer-label": "class 1"
  }
]
